- Test system: MS2 coat protein
- PROTOCOL: apparent KD of MS2 coat protein; designed switch direction (-1 OFF switch, 1 ON switch): -1; higher = weaker reporter binding
- SETTINGS: input ligand: microRNA oligo, concentration not stated
MEASURE NAME: apparent KD of MS2 coat protein (nM)

AGGUGCUUCUGGAGACAUGAGGAUCACCCAUGUCGAGUUAGCGAGGAUAUCGGUAAGGCAUGUGAUGAGAAGGCGCAAACCGAU [Ex NG3 #50] (Eterna round: R96, puzzle: Exclusion NG 3) ... 12.7
ACCUCACAUGAGGAUCACCCAUGUCAGGAUAUUCAAACAGGCGAAACUCCGCCUUCUCGAAGAAGGGACAUUAA [Israon] (Eterna round: R96, puzzle: Exclusion 1) ... 14.6
UAAGUUUACCGAGGAUAUGGUCAAUAAUUAUGACCAGAAGGCGGACUCAACAUGAGGAUCACCCAUGUAUAAAGGGUAAUUGGU [JR_ExcNG1_Sub047] (Eterna round: R96, puzzle: Exclusion NG 1) ... 110
CACCGUUAGAGAGGAUAUCGUACAUGAGGAUCACCCAUGUAAUAAAUGAGAAUUUCGGAUGUCUGCGAGAAGGCUCGAAUCGGC [Ostracism 32 - Jieux - Exclusion NG 2] (Eterna round: R96, puzzle: Exclusion NG 2) ... 23
CGUCAGAUCGCAGGAUAUGUUAGAUGAGCACAGAAUGUCCAGACCACAUGAGGAUCACCCAUGUAACAGAAGGGCGGUCUACGG [Eternabot solution 29] (Eterna round: R96, puzzle: Exclusion NG 2) ... 195
GUAUAACAUGUAGGAUAUGCGUGGCGAAGCUAUGCAGAAGGACAUGAGGAUCACCCAUGUUAUAGCGUCUGCGUACAGAUGCUA [Mat - Exclusion NG 1 - Mod of JL - D93] (Eterna round: R96, puzzle: Exclusion NG 1) ... 26.2
UUUUUAUAUGAAGGAUAUACUUAACAUGAGGAUCACCCAUGUGGUGUUGUGAGUGAGUGAGUUUAGUAGAAGGUCAAUUCUUAU [JMF's solution 82] (Eterna round: R96, puzzle: Exclusion NG 2) ... 651
ACAUGAGGAUCACCCAUGUUUGGCUGGUUUUCUCCGGCUGUCGAGGAUAUAGUACGGUAUCCGCGCUAGAAGGUGAGGGUCGGC [Aenatbe mod 2] (Eterna round: R96, puzzle: Exclusion NG 3) ... 12.2
UUAAAUCAUGUAGGAUAUGCGUGGCGAAGCUAUGCAGAAGGACAUGAGGAUCACCCAUGUUCCUGCGUCCGCGUACGGAUGCAA [JL Eng1 1.21 mod] (Eterna round: R96, puzzle: Exclusion NG 1) ... 16.3

----------
Entries and their apparent KD of K4 kissing-loop reporter
- Tested on: K4 kissing-loop RNA reporter;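 further: bound reporter read as fluorescence of individual clusters on recovered sequencing chips by microscopy, with normalized cluster intensities fitted with a binding model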
- PROTOCOL: apparent KD of K4 kissing-loop reporter; higher = weaker reporter binding
- SETTINGS: Eterna round: R107; input ligand: FMN 200 uM
MEASURE NAME: apparent KD of K4 kissing-loop reporter (nM)

UGAUACCAGACUGAUACCAGCGAGUGAUGUUUGCUGAAAUCAGGGUCAAAGACCCUGUCUCGCCCUUGGCAGCAGUCUGGUAUCU [TheoBX 21 #SwitchBubble #StaticStem] ... 735
AGGUGCUACGGAAGGAGCGCACCAGUGAUGUUGGUGUGUGACCGUGACAUGGCAGUCAAGGUGCAGGUAGGUCGCCGUGGCCAUA [Rigela] ... 138
UUUUGGUUCUGAGGAUAUUCGAAGAAAUAUAGUGAUGUUAUAUAAGGAGGAGGAUGUAGGGAGGAAGGAGAAGGCAGAAGAGGAG [ExFMNB.J] ... 1040
UGUACCGAGUUAGGAUAUGUCGUCGAAAGACGAAAUGGAGUGAUGUUCCUUAAACUGCGAAAGCAGACAGAAGGGAUUUGGUACU [FmnBS 29 U11+U77] ... 331
CCGGCCCGGCCGGAUACCAGUGCGCCGCUGGGAACUGCGGGCCCAGAGUGAUGUUCGGGACACCCUUGGCAGCCGCCUGGGUCGC [#2 Same State - Theophylline B Attempt #25 (HarryS)] ... 450
UUUAUAUUGUCGGCCGCCACUGGAUUAAUAUUUGUAUAAUCUAGUUCAAAGUGAUGUUUUGAGUCCAGGACCGGGACAUUUGAUA [JR_Nu_ExcTryptoB_Sub029] ... 622
UCUGGAGCAUAUGAUACCAGCAGUGAGAGACAGGAAGUAUAGUGAUGUUAUAUGAGAGAAUGCCCUUGGCAGCGUGUGCAGUGGG [SSTheophylB.O] ... 119
GGUGUGCCAGUGAUGUUGGCAUAAACUGAAGGAGCGCGUGAAAACGCAGGUAGGUCGCAGAACCUUGCCAACUAUUUUAUUCACC [Ex Arginine A K4 25] ... 181
GUUACGCAUGGAAGGAGCGCAUGCUCAACAAUAAGCUCAGUGAUGUUGAGCAAAAUUAAAAUGCAGGUAGGUCGCCAUGUGUAAC [Ex Arginine B K4 28] ... 542
AGUGGUGUAUCUUUUAAGAGUGAUGUUUUUCGAGGACCGGUACGGCCGCCACUCGAGUGAUGAGAGCGUCGUUGUGGUGAUUAGU [#15 K4 Tryptophan A Exclusion] ... 814
UGGUGCCAUUGGCGGGUAGAUAGUGGUGGCAAGGAUAUGUGAGCGAACAGAAGGUGCAUCAAGUUCAGUGAUGUUGGGCUCGAUU [theeternabot_sameState_KL_FMN_A_20] ... 264
CCAGGAUGAUGAGGAUGAUGAAUUACUGAAGGAGCGCAUAUGGUUGCAGGUAGGUCGCGGUGAAUAAGUAUAGUGAUGUUAUGCC [SSArgA.X] ... 530

----------
- Tested on: MS2 coat protein
- PROTOCOL: apparent KD of MS2 coat protein; designed switch direction (-1 OFF switch, 1 ON switch): -1; higher = weaker reporter binding
- SETTINGS: Eterna round: R95; input ligand: none
Entries and their apparent KD of MS2 coat protein
MEASURE NAME: apparent KD of MS2 coat protein (nM)

GAUUAUGCGAGCUUUAGGGACAUGAGGAUCACCCAUGUUCGUCUUAUUAGUCUAGGUACACUGACAUACCUAAAUCU [JMF 67] (puzzle: Sensor v3, turn-off variant 1) ... 23.6
UAGAAGGUAGGAUAUACGAAUAAAUAGGGUAGUAAUAAUACACAUGAGGAUCACCCAUGUAGAAGGACCAAGAU [Mat - Exclusion 2 - Mod of my Tesla design - D31] (puzzle: Exclusion 2) ... 23
UUUAAUUUUUUUUUUUUACAAGCUUUUUGCUCGUCUUAUACAUGAGGAUCACCCAUGUGAGUGGAGGAUAAAUUAUC [JMF 34] (puzzle: Sensor v3, turn-off variant 2) ... 20.4
GGUUGGCGAGGAUAUACAUGAGGAUCACCCAUGUGAGAGAAAGAAGUGAGGAAGAAAAGUAGAAGGUGCUGACG [salish99_ex3_r3_055] (puzzle: Exclusion 3) ... 82.7
UCAUACGAUGAGGAUAUCUCCGUUAAAGUAUGUAGAGAAGGCGUUACAUGAGGAUCACCCAUGUUUGUGGGCAG [Ex-6 Malc#9] (puzzle: Exclusion 6) ... 190
CUAGCUUCGGCUAGUACAAGCUUUUUGCUCGUCUUAUUAACAUGAGGAUCACCCAUGUUAAUGAGACCUCAUGUAUU [Sensor v3 - turn-off variant 2 - 9] (puzzle: Sensor v3, turn-off variant 2) ... 11.1
CAGUACUGAGGAUAUACAUGAGGAUCACCCAUGUGUUCCAGCUGGGAAACUAGCAAAAGUAGAAGGCAGUACUG [salish99_ex3_r3_076] (puzzle: Exclusion 3) ... 20.8
AGUACUAGCACGAAAGUGUUAGUACAAUAAGCUUGUGAAACAUGAGGAUCACCCAUGUCCUCAUAAGCUCGUCUUAU [salish99_TOv2_r3_020] (puzzle: Sensor v3, turn-off variant 2) ... 16
AGUCUGCGAGGAUAUACAUGAGGAUCACCCAUGUGCGAGAUACUAGUGAGGUCGAUUGGUAGAAGGCGCGGACG [Mat - Exclusion 3 - Mod of JL D85] (puzzle: Exclusion 3) ... 67
ACAAGCUUUUUGUUCGUCUUAUAAUAAUAAAUAAAUAUAACAUGAGGAUCACCCAUGUUAAGAAGACGGCCUCAUGU [Sesor Array 21 - Jieux - Sensor v3, turn-off variant 2] (puzzle: Sensor v3, turn-off variant 2) ... 71.8

----------
- Test system: MS2 coat protein
- PROTOCOL: apparent KD of MS2 coat protein; designed switch direction (-1 OFF switch, 1 ON switch): 1; higher = weaker reporter binding
- SETTINGS: Eterna round: R95; input ligand: none
MEASURE NAME: apparent KD of MS2 coat protein (nM)

CAGCGCUGUCGAGAGGAUAUGUGGUGAUGGACAUGAGGAUCACCCAUGUUAGCGACAGCAUCACGGCAGAAGGCUCUACCGCUGC [Soteed Omei mod 30] (puzzle: Same State 2) ... 23.1
AGCUAUCGAAAACGAUAGCAAGAGCAUGUACAUGAGGAUCACCCAUGUCAUGUACAAGCUUUUUGCUCGUCUUAAAA [Zipper 23 - 2] (puzzle: Sensor for hsa-mir-208a) ... 490
UAGAACAAGCUUUUUGCCCGUCUUAGAUAACAUGAGGAUCACCCAUGUAAGGUGAAAGUUAGAGAGUGGAGGAAGAA [JR_SHM208A_Sub054] (puzzle: Sensor for hsa-mir-208a) ... 146
